Items are presented alongside their recorded CYP inhibition (% of control) 1A2.
- assayed_system: CYP1A2 (Homo sapiens (Human))
- Sequence (P05177 whole entry): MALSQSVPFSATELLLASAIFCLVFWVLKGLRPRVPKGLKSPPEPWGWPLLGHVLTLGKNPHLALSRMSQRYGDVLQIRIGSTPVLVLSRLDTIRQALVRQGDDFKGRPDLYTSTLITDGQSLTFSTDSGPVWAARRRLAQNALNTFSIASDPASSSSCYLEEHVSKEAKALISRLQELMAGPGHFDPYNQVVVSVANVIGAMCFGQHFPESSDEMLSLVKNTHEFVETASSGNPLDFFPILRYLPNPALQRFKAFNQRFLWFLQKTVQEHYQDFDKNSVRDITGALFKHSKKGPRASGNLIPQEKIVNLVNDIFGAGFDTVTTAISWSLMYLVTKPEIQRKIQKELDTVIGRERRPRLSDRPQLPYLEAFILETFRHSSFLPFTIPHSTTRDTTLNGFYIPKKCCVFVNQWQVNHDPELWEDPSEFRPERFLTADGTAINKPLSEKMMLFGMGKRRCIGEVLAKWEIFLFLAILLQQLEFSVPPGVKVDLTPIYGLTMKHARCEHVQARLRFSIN
- protocol_summary: Cytochrome P450 activity inhibition, CYP1A2
- Type: in vitro ADME
- condition_summary: 10 μM, human liver microsomes
observed_property: CYP inhibition (% of control) 1A2

compound: OCCC/C(=C(\c1ccc(O)cc1)c1ccc(OCCN2CCC3(CCNC3)C2)cc1)c1ccccc1 (centres unmarked) [Compound 39]
observed: 82.5 % of control
//
compound: OCCC/C(=C(\c1ccc(O)cc1)c1ccc(C2CCNCC2)cc1)c1ccccc1 [Compound 20j]
observed: 93.6 % of control
//
compound: OCCC/C(=C(\c1ccc(O)cc1)c1ccc(N2CCN(C3CCCC3)CC2)cc1)c1ccccc1 [Compound 22n]
observed: 99 % of control
//
compound: CN1CCC[C@H]1CCOc1ccc(/C(=C(/CCCO)c2ccccc2)c2ccc(O)cc2)cc1 [Compound 6j]
observed: 98.7 % of control
//
compound: OCCC/C(=C(\c1ccc(O)cc1)c1ccc(C2CN(C3CC3)C2)cc1)c1ccccc1 [Compound 22d]
observed: >100 % of control
//
compound: CC(C)N1CCC(c2ccc(/C(=C(/CCCO)c3ccccc3)c3cccc(O)c3)cc2)CC1 [Compound 22h]
observed: >100 % of control
//
compound: CCN1CCN(c2ccc(/C(=C(/CCCO)c3ccccc3)c3ccc(C)cc3)cc2)CC1 [Compound 18j]
observed: >100 % of control
//
compound: OCCC/C(=C(\c1ccc(O)cc1)c1ccc(OCCN2C[C@H]3C[C@H]3[C@H]2CO)cc1)c1ccccc1 [Compound 38d]
observed: 79.2 % of control
